# SYSTEM UNDER TEST: human HSD-1 (recombinant HSD-1) (Homo sapiens, UniProt P28845)
# Construct: made in house
# Sequence (P28845 whole entry): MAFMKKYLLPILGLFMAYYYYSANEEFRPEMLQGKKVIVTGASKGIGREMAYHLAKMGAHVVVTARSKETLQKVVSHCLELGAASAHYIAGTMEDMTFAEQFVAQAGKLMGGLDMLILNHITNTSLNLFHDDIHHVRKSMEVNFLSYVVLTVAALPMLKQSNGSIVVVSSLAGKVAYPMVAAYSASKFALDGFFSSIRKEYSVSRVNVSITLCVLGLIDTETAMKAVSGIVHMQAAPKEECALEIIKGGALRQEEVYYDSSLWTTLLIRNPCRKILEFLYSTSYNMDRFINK
# ASSAY METHOD TEXT: HSD-1 activity inhibitory action in vitro (SPA, conversion of cortisone to cortisol)
# Assay type: biochemical
# MEASUREMENT PARAMETERS: recombinant human HSD-1 expressed using baculovirus system; 10 nM 3H cortisone, 500 μM NADPH; room temperature 90 to 120 min; read-out: hHSD1 (IC50 (nM))
OBSERVED PROPERTY: IC50

Kindly indicate its recorded IC50. Item: O=C(c1cnn(C2CCN(C(=O)N3CC[C@@H](O)C3)CC2)c1C1CC1)N1CC[C@@H](c2ccccc2C(F)(F)F)C1 [Example 21]
< 30 nM

Please look at this molecule and report its IC50: O=C1CN(C(=O)N2CCC(n3ncc(C(=O)N4CC[C@@H](c5ccccc5C(F)(F)F)C4)c3C3CC3)CC2)CCN1 [Example 26]
< 30 nM

Please give the documented IC50 of O=C(N[C@H](CO)Cc1ccccc1)N1CCC(n2ncc(C(=O)N3CC[C@@H](c4ccccc4C(F)(F)F)C3)c2C2CC2)CC1 [Example 50]
< 30 nM

Where do the numbers come from? From patent US20100010219A1.
